measurementProtocol: Maximum plasma concentration in dog after peroral administration of 0.65 mg/kg dose of compound
Type: ADME, organism-based, Canis lupus familiaris
Parameters: dose 0.65 mg/kg, route oral
experimentalSetup: po
propertyName: Cmax (nM)
Answers are plain numbers, in nM.

Provide Cmax value for the following molecule: O=C(Cn1c(Cl)cnc(NCC(F)(F)c2ccccn2)c1=O)NCc1ncccc1F [DPOC-4088]
1160

====

measurementProtocol: Plasma half-life (5 mg/kg) in rhesus monkey after intravenous administration
Assay type: ADME, organism-based, Macaca mulatta
propertyName: half-life

O=C(Cn1c(Cl)cnc(NCC(F)(F)c2ccccn2)c1=O)NCc1ncccc1F ... 43.8 min

We now examine a further molecule.
Provide half-life value for the following molecule: Cc1cnc(NCC(F)(F)c2ccccn2)c(=O)n1CC(=O)NCc1ncccc1F
59.4 min

====

Endpoint: Ki. System: Serine protease 1 (Homo sapiens, UniProt P07477). Items follow.
Sequence (P07477 whole entry): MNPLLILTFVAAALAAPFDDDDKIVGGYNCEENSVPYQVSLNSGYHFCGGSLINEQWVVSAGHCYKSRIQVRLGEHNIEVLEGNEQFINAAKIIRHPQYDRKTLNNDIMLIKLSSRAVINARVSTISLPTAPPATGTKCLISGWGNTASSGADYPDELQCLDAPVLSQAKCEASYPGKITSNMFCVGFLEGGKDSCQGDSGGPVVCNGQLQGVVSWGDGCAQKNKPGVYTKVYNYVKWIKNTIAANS
Give bare numbers, in µM.

Some molecules with recorded Ki:
COc1ccnc(CNC(=O)Cn2c(Cl)cnc(NCC(F)(F)c3ccccn3)c2=O)c1 ... 665
Cc1cnc(NCC(F)(F)c2ccccc2)c(=O)n1CC(=O)NCc1cc(Cl)ccn1 ... 47
Cc1nc(N)ccc1CNC(=O)Cn1c(C)cnc(NCC(C)c2ccccc2)c1=O (centres undefined) ... 1.6
Cc1ccnc(CNC(=O)Cn2c(Cl)cnc(NCC(F)(F)c3ccccn3)c2=O)c1F ... 80
O=C(Cn1c(Cl)cnc(NCC(F)(F)c2ccccn2)c1=O)NCc1ncccc1F ... 202

Batch lookup, Ki per entry.
1. N#Cc1cnc(NCC(F)(F)c2ccccn2)c(=O)n1CC(=O)NCc1ncccc1F
2. Cc1nc(N)ccc1CNC(=O)Cn1c(C)cnc(NCC(F)(F)c2ccccn2)c1=O
3. Cc1ccnc(CNC(=O)Cn2c(C)cnc(NCC(F)(F)c3ccccn3)c2=O)c1F
4. Cc1nc(N)ccc1CNC(=O)Cn1c(C)cnc(NCC(C)(C)c2ccccc2)c1=O

1. 213
2. 0.8
3. 118
4. 0.8

Batch lookup, Ki per entry.
1. Cc1nc(N)ccc1CNC(=O)Cn1c(C)cnc(NCC(F)(F)c2ccccc2)c1=O
2. Cc1cnc(NCC(F)(F)c2ccccn2)c(=O)n1CC(=O)NCc1ncccc1F

0.855
252

====

targetSystem: UniProt:P00734
measurementProtocol: Inhibitory constant against thrombin (IIa)
propertyName: pKi
One number for each entry, as −log10 of the molar value.

Some molecules with recorded pKi:
COc1cccnc1CNC(=O)Cn1c(Cl)cnc(NCC(F)(F)c2ccccn2)c1=O ... 7.82
O=C(Cn1c(Cl)cnc(NCC(F)(F)c2ccccn2)c1=O)NCc1ncccc1F [DPOC-4088] ... 8.28
Cc1ccnc(CNC(=O)Cn2c(Cl)cnc(NCC(F)(F)c3ccccn3)c2=O)c1 ... 8.28
Cc1ccnc(CNC(=O)Cn2c(C)cnc(NCC(F)(F)c3ccccc3)c2=O)c1 ... 8.32
O=C(Cn1c(C(F)(F)F)cnc(NCC(F)(F)c2ccccn2)c1=O)NCc1ncccc1F ... 7.36
Cc1nc(N)ccc1CNC(=O)Cn1c(C)cnc(NCC(C)(C)c2ccccc2)c1=O ... 8.96
Cc1ccnc(CNC(=O)Cn2c(C)cnc(NCC(F)(F)c3ccccc3)c2=O)c1F ... 8.92
Cc1cnc(NCC(F)(F)c2ccccn2)c(=O)n1CC(=O)NCc1ccccn1 ... 7.82

Batch lookup, pKi per entry.
1. Cc1ccnc(CNC(=O)Cn2c(Cl)cnc(NCC(F)(F)c3ccccn3)c2=O)c1F
2. Cc1cnc(NCCc2ccccc2)c(=O)n1CC(=O)NCc1cccnc1

1. 9.05
2. 5.92

====

Endpoint: Ki. System: Serine protease 1 (Homo sapiens). Items follow.

Some compounds with recorded Ki:
Cc1cnc(NCC(F)(F)c2ccccn2)c(=O)n1CC(=O)NCc1ccccn1 ... > 1 mM
Cc1ncccc1CNC(=O)Cn1c(C)cnc(NCCc2ccccc2)c1=O ... > 0.1 mM

Provide Ki value for the following compound: Cc1cnc(NCCc2ccccc2)c(=O)n1CC(=O)NCc1ccccn1
> 1 mM
